meta.source: ChEMBL document CHEMBL4689842

System: Fibroblast
experimental protocol: Multiplex assay against human fibroblast
Format: toxicity, cell-based
measurement setup: 24 h, 10 µM, compound concentration 10 uM, replicate 2
Labelling: Population Normal (%) reported below 80% becomes Condition met; at or above becomes Condition not met.

{"compound": "CN(C)C(=O)C(CCN1CCC(O)(c2ccc(Cl)cc2)CC1)(c1ccccc1)c1ccccc1.Cl [LOPERAMIDE HYDROCHLORIDE]", "class": "Condition not met"}
{"compound": "CCc1cccc(CC)c1NC(=O)c1nn(C)c2c1CCc1cnc(Nc3ccc(C(=O)NC4CCN(C)CC4)cc3OC(F)(F)F)nc1-2", "class": "Condition not met"}
{"compound": "CCCS(=O)(=O)c1nc(NC2CC2)cc(-c2ccc3c(ccn3C3CC(C)(C)NC(C)(C)C3)c2)n1", "class": "Condition not met"}
{"compound": "CCN1CCN(c2ccc(Nc3cc(N(C)C(=O)Nc4c(Cl)c(OC)cc(OC)c4Cl)ncn3)cc2)CC1 [INFIGRATINIB]", "class": "Condition met"}
